- Tested on: CCRF-CEM leukemia
- assay.notes: NCI-60 one-dose screen, 48 h
- stated.conditions: 10 µM
Compounds without any hit were thinned out: in the full panel of roughly 83,000, 20% have a hit. Active and inactive are the calls of the source. The calls were made as follows: active = growth percent below 10; inactive = the rest.
Select the matching outcome among 1.0 (active), 0.0 (inactive)

## Task Record request — test call for CC(=O)N(O)c1ccc(/C=C/c2ccccc2)cc1
## Result 0.0

## Task Record request — test call for NC1CCC(Nc2nc(NCc3ccc(-c4cccs4)nc3)c3ncn(C4CCCC4)c3n2)CC1 (stereo unspecified)
## Result 1.0

## Task Record request — test call for COC(=O)c1cnc2c(c1)Oc1ccccc1-c1ccnn1-2
## Result 0.0

## Task Record request — test call for COc1ccc(Nc2ccnc(N3CCN(c4ccnc5cc(Cl)ccc45)CC3)n2)cc1
## Result 1.0

## Task Record request — test call for CCCCCCCCCCCCCCCCn1cc[n+](C)c1
## Result 0.0

## Task Record request — test call for CCCCC(=O)N(c1ccc(Nc2c3ccccc3nc3cc([N+](=O)[O-])ccc23)cc1)S(C)(=O)=O
## Result 0.0

## Task Record request — test call for CC(=O)CS(C)(=O)=O
## Result 0.0

## Task Record request — test call for COc1ccc(C2=NNC(c3sc(Cl)nc3Cl)C2)cc1 (stereo unspecified)
## Result 0.0

## Task Record request — test call for O=C(NCCc1nccs1)c1cnc2c(S)cccc2c1
## Result 0.0

## Task Record request — test call for C=CCNCCCN1C(=O)c2ccc3c4c(ccc(c24)C1=O)C(=O)N(CCCNCC=C)C3=O
## Result 1.0

## Task Record request — test call for Cc1ccc(-c2cc(-c3cccc(Nc4ccnc5cc(Cl)ccc45)c3)nc3nc(N)[nH]c(=O)c23)cc1
## Result 0.0

---

- Tested on: SF-268 CNS
- assay.notes: NCI-60 one-dose screen, 48 h (100 = growth as untreated, 0 = no growth, -100 = all killed)
- stated.conditions: 10 µM
- Protocol: Cells are grown in 96 well plates and exposed to the test compound for 48 hours. Compounds are tested at a single concentration, which is 10^-5 M for most compounds. The reported endpoint is percent growth (GI% or GIPRCNT), where numbers from 0 - 100% represent growth inhibition, and numbers from -100% - 0 represent cell death. For example, a value of 40 represents 60% growth inhibition. A value of 0 means no net growth occurred over the course of the experiment. […]
About 83,000 compounds went through this panel and 20% of them were active in at least one assay; those are over-represented in the sample as a whole.
Consider the following molecules; for each one, report its growth.
State just the number; it will be interpreted in %.

## Task Kindly state the measured growth obtained for Oc1ccc(Cn2cc3c(c2-c2ccccc2)CCc2cnoc2-3)cc1 with SF-268 CNS.
## Result 106

## Task Kindly state the measured growth obtained for FC(F)(F)c1ccc(-c2cnc(Cl)nc2NC2CCCCCC2)cc1 with SF-268 CNS.
## Result 39.4

## Task Kindly state the measured growth obtained for CCCCn1c(=O)[nH]c2c(c1=O)C(c1ccc(Cl)cc1)c1c([nH]c(=O)n(CCCC)c1=O)N2 with SF-268 CNS.
## Result 99

## Task Kindly state the measured growth obtained for CCOC(=O)C(=O)Cc1cccnn1 with SF-268 CNS.
## Result 113

## Task Kindly state the measured growth obtained for CCN(CC)c1ccc(/C=C/C2=[N+](C)c3ccccc3C2(C)C)c(C)c1 with SF-268 CNS.
## Result 22.7

## Task Kindly state the measured growth obtained for CC(=O)Nc1ccc(Sc2ccc(NC(C)=O)cc2)cc1 with SF-268 CNS.
## Result 102

## Task Kindly state the measured growth obtained for COc1cc(CSc2nc3ccc(C)cc3c(=O)n2Cc2ccccc2)cc(OC)c1OC with SF-268 CNS.
## Result 51.5

## Task Kindly state the measured growth obtained for O=c1oc2c3ccc4cnccc4c3[nH]c2c2ccccc12 with SF-268 CNS.
## Result 23

## Task Kindly state the measured growth obtained for Cc1ccc(C)c2c1sc1nc3n[nH]c(N)c3c(=N)n12 with SF-268 CNS.
## Result 109

## Task Kindly state the measured growth obtained for CCOC(=S)Sc1ccc([N+](=O)[O-])cc1[N+](=O)[O-] with SF-268 CNS.
## Result 104

## Task Kindly state the measured growth obtained for CC(=O)Oc1ccc(C2=Cc3ccc(OC(C)=O)cc3OC2C)cc1 (stereo not drawn) with SF-268 CNS.
## Result 57.9

## Task Kindly state the measured growth obtained for CC(C)c1ncc(CO)n1Cc1c(Cl)cccc1Cl with SF-268 CNS.
## Result 96.5

## Task Kindly state the measured growth obtained for Cc1ccccc1[P+](Cc1ccccc1)(c1ccccc1)c1ccccc1 with SF-268 CNS.
## Result 33.9

## Task Kindly state the measured growth obtained for Cn1cnc([N+](=O)[O-])c1Sc1nnc(-c2ccccc2)c(-c2ccccc2)n1 with SF-268 CNS.
## Result 85.1

## Task Kindly state the measured growth obtained for CCN(CC)CC(O)Cc1ccc(OC)cc1 (stereo not drawn) with SF-268 CNS.
## Result 114

## Task Kindly state the measured growth obtained for CCc1c(C)[nH]c(=O)c(C(N)=O)c1C#N with SF-268 CNS.
## Result 105

## Task Kindly state the measured growth obtained for CCCCCCCCCCN=C(c1ccc(N(C)C)cc1)c1ccc(N(C)C)cc1 with SF-268 CNS.
## Result 57.5

## Task Kindly state the measured growth obtained for Nc1ccc(Sc2ccc3c4c2cccc4c(=O)n2c4ccccc4nc32)cc1 with SF-268 CNS.
## Result 59.4

## Task Kindly state the measured growth obtained for COc1c(C)c(C)c(OC)c2c1[nH]c(=O)c1c3cccnc3cn21 with SF-268 CNS.
## Result 112

## Task Kindly state the measured growth obtained for Nc1c(C(=O)NC2CCCCC2)sc2nc3c(cc12)C(=O)CCC3 with SF-268 CNS.
## Result 109

## Task Kindly state the measured growth obtained for COc1ccc(C2=NNC(c3sc(Cl)nc3Cl)C2)cc1 (stereo not drawn) with SF-268 CNS.
## Result 73

## Task Kindly state the measured growth obtained for Nc1c(C(=O)Nc2ccccc2F)sc2nc3c(cc12)C(=O)CCC3 with SF-268 CNS.
## Result 54.9

## Task Kindly state the measured growth obtained for COc1ccc(N2CCN(c3nc(-c4ccccc4)c(C#N)c(=O)[nH]3)CC2)cc1 with SF-268 CNS.
## Result 108
